# Target under test: cAMP-dependent protein kinase catalytic subunit PRKX (Homo sapiens) (UniProt P51817);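 also: values are mean percent inhibition of PRKX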
# Sequence (P51817 whole entry): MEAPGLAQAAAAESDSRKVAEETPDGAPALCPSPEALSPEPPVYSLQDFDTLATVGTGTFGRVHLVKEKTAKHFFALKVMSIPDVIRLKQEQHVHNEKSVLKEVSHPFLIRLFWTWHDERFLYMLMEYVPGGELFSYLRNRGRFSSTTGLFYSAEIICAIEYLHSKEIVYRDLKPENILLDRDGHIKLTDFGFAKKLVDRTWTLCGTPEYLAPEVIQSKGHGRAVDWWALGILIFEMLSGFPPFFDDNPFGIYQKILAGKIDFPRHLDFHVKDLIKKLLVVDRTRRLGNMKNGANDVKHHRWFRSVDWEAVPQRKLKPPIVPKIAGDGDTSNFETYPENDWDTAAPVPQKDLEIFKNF
# Condition description: at 0.1 µM
Property: inhibition (%)

Compound | Target under test | Property | Meas value
Cc1cc(O)cc(C)c1/C=C/c1cncc(C(N)=O)c1 | cAMP-dependent protein kinase catalytic subunit PRKX (Homo sapiens) (UniProt P51817) | inhibition | 1.71
CC1(C)CC(n2cnc(-c3ccc(F)cc3)c2-c2ccnc(N)n2)CC(C)(C)N1 | cAMP-dependent protein kinase catalytic subunit PRKX (Homo sapiens) (UniProt P51817) | inhibition | 0.98
CC1=C(C(=O)Nc2ccc3[nH]ncc3c2)C(c2ccc(F)cc2)N=C(c2ccc(C(F)(F)F)nc2)N1 (stereo unspecified) | cAMP-dependent protein kinase catalytic subunit PRKX (Homo sapiens) (UniProt P51817) | inhibition | 3.93
CCS(=O)(=O)c1ccc(OC)c(Nc2ncc(-c3cccc(C(C)=O)c3)o2)c1 | cAMP-dependent protein kinase catalytic subunit PRKX (Homo sapiens) (UniProt P51817) | inhibition | 1.59
O=C(O[C@H]1CN[C@H](C#Cc2cc3ncnc(Nc4ccc5c(ccn5Cc5cc(F)ccc5F)c4)c3s2)C1)N1CCOCC1 | cAMP-dependent protein kinase catalytic subunit PRKX (Homo sapiens) (UniProt P51817) | inhibition | 2.19
COc1cccc(Nc2nccc(-c3cnn4ncccc34)n2)c1 | cAMP-dependent protein kinase catalytic subunit PRKX (Homo sapiens) (UniProt P51817) | inhibition | -0.56

---

# Target under test: Maternal embryonic leucine zipper kinase (Homo sapiens);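 also: each value is the mean inhibition of MELK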
# Condition description: at 1 µM
Property: inhibition (%)

Given smiles | Meas value
CS(=O)(=O)Nc1ccc(-c2cc(-c3ccccc3)cc(C(N)=O)c2N)cc1 | 7.77
COc1cc(Nc2ncc(-c3ccccc3)o2)cc(OC)c1 | 5.97
CCn1c(-c2nonc2N)nc2cncc(C(=O)NCCNC)c21 | 61.2
O=C(O[C@H]1CN[C@H](C#Cc2cc3ncnc(Nc4ccc5c(ccn5Cc5cc(F)ccc5F)c4)c3s2)C1)N1CCOCC1 | 5.23
CCS(=O)(=O)c1ccc(OC)c(Nc2ncc(-c3cccc(C(C)=O)c3)o2)c1 | 7.46
COc1ccc(-c2nn3ncccc3c2-c2ccnc(Nc3ccc(F)c(F)c3)n2)cc1 | 4.64
Fc1ccc(Nc2nccc(-c3c(-c4ccc(C(F)(F)F)cc4)nn4ncccc34)n2)cc1F | 3.78
COc1ccc2ncn(-c3cc(O[C@H](C)c4ccccc4C(F)(F)F)c(C(N)=O)s3)c2c1 | 2.51
COc1cccc(-n2ncc3c(N/N=C/c4ccc(C(=O)NCCN(C)C)cc4)ncnc32)c1 | 11.5
COc1cc(N2CCN(C(C)C)CC2)ccc1Nc1nc(Nc2cccc3ncccc23)c2cc[nH]c2n1 | 3.21
OCCCNc1nccc(-c2c(-c3ccc(F)cc3)nn3cc(C(F)(F)F)ccc23)n1 | 2.27

---

# Target under test: Serine/threonine-protein kinase D2 (Homo sapiens) (UniProt Q9BZL6);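 also: mean value of PRKD2 inhibition, from the GSK PKIS screening panel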
# Sequence (Q9BZL6 whole entry): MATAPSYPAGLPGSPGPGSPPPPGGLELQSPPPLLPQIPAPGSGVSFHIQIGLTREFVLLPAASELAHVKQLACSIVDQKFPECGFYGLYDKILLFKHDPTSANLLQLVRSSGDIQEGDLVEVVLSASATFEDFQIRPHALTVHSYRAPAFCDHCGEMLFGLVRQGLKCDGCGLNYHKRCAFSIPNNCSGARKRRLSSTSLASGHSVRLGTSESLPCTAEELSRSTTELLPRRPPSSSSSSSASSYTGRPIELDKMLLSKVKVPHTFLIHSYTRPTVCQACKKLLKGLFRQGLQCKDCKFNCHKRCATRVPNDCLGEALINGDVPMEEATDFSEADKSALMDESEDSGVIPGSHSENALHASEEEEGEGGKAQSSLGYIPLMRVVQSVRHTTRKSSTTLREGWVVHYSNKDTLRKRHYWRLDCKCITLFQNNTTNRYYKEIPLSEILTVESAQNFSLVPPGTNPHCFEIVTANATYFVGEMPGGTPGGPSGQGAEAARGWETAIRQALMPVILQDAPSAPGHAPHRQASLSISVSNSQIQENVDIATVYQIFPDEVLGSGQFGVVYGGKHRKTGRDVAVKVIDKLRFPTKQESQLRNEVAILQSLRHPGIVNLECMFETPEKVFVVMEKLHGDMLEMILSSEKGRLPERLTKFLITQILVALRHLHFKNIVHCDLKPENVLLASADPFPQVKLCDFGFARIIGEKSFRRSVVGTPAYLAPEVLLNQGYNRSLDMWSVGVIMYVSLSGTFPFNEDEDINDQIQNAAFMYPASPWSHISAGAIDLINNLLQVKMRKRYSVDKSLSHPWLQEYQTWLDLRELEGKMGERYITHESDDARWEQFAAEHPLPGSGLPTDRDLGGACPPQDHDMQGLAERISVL
# Condition description: at 1 µM
Where inhibition equals or exceeds 4%, the correct label is Condition met; where it does not, the label is Condition not met.

Molecule | Classification
O=C1Nc2ccccc2/C1=C1\CCc2cc(O)ccc21 | Condition met
CC1=C(C(=O)Nc2ccc3[nH]nc(C)c3c2)C(c2ccc(C(F)(F)F)cc2)CC(=O)N1 (stereo not given) | Condition met
CS(=O)(=O)CCNCc1ccc(-c2ccc3ncnc(Nc4ccc(OCc5cccc(C(F)(F)F)c5)cc4)c3c2)o1 | Condition met
COc1ccc2ncn(-c3cc(O[C@H](C)c4ccccc4C(F)(F)F)c(C(N)=O)s3)c2c1 | Condition not met
COc1cc(Nc2ncc(-c3ccccc3)o2)cc(OC)c1 | Condition not met

---

# Target under test: CDK3/Cyclin E (Homo sapiens) (UniProt P24864+Q00526);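 also: each figure is a mean percent inhibition of the CDK3/cyclin E complex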
# Sequence (P24864 whole entry, looked up): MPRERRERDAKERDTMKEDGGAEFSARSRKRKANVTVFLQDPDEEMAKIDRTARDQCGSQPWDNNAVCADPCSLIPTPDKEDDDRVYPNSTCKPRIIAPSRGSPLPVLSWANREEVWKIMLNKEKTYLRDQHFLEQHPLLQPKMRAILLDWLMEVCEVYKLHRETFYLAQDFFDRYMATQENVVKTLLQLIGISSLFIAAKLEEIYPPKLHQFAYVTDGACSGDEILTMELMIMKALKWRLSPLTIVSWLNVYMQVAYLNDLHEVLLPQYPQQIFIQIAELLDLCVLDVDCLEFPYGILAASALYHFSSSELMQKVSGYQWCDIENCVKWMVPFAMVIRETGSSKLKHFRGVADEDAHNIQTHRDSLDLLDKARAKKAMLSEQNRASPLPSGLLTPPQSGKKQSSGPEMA
# Sequence (Q00526 whole entry, looked up): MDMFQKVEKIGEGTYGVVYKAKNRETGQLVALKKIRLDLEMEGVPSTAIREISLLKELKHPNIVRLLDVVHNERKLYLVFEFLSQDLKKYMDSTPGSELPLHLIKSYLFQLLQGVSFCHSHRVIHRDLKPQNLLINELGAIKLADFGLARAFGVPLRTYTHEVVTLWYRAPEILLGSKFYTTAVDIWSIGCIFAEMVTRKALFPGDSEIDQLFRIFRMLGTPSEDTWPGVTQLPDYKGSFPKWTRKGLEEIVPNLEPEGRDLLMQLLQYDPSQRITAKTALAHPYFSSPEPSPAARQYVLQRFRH
# Condition description: at 1 µM
Param threshold (20%) applies to inhibition; output class 1 when value >= threshold, class 0 when value < threshold.

Molecule | Classification
COC(=O)Nc1nc2cc(Oc3ccc(NC(=O)Nc4ccccc4)cc3)ccc2[nH]1 | class 0
CC1=C(C(=O)Nc2ccc3[nH]ncc3c2)C(c2ccc(F)cc2)N=C(c2ccc(C(F)(F)F)nc2)N1 (configuration not stated) | class 0
CCN1CCC(C(=O)Nc2n[nH]c3nnc(-c4cccc(F)c4F)cc23)CC1 | class 0
CN(C)CCNC(=O)Nc1ccc(N(C)c2ccnc(Nc3ccc(CS(C)(=O)=O)cc3)n2)cc1 | class 0
COc1cccc(-n2ncc3c(N/N=C/c4ccc(C(=O)NCCN(C)C)cc4)ncnc32)c1 | class 1
CC1(C)CC(n2cnc(-c3ccc(F)cc3)c2-c2ccnc(N)n2)CC(C)(C)N1 | class 0
O=C(Nc1n[nH]c2nnc(-c3cccnc3)cc12)C1CC1 | class 1

---

Listing of recorded inhibition by entry.
# Target under test: Ribosomal protein S6 kinase alpha-4 (Homo sapiens);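 also: mean inhibition of MSK2, GSK PKIS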
# Condition description: at 1 µM

Given smiles | inhibition [%]
O=C(O[C@H]1CN[C@H](C#Cc2cc3ncnc(Nc4ccc5c(cnn5Cc5ccccc5)c4)c3s2)C1)N1CCOCC1 | -0.97
CNC(=O)c1cncc(/C=C/c2ccccc2C)c1 | 4.27
CS(=O)(=O)CCNCc1ccc(-c2ccc3ncnc(Nc4ccc(OCc5ccccc5)cc4)c3c2)o1 | 2.56
CS(=O)(=O)Nc1ccc(-c2cc(-c3ccccc3)cc(C(N)=O)c2N)cc1 | 0.34
CCN1CCC(C(=O)Nc2n[nH]c3nnc(-c4cccc(F)c4F)cc23)CC1 | 0.26
CCS(=O)(=O)c1ccc(OC)c(Nc2ncc(-c3cccc(F)c3)o2)c1 | 5.01
CS(=O)(=O)CCNCc1ccoc1-c1ccc2ncnc(Nc3ccc(OCc4ccccc4)cc3)c2c1 | -1.22
CN(C)CCNC(=O)Nc1ccc(N(C)c2ccnc(Nc3ccc(CS(C)(=O)=O)cc3)n2)cc1 | 4.32
COc1cccc(Nc2nccc(-c3cnn4ncccc34)n2)c1 | 10.5
COc1cc(N2CCN(C(C)C)CC2)ccc1Nc1nc(Nc2cccc3ncccc23)c2cc[nH]c2n1 | 2.7

---

Listing of recorded inhibition by entry.
# Target under test: Insulin receptor (Homo sapiens) (UniProt P06213)
# Sequence (P06213 28-758 limits assumed): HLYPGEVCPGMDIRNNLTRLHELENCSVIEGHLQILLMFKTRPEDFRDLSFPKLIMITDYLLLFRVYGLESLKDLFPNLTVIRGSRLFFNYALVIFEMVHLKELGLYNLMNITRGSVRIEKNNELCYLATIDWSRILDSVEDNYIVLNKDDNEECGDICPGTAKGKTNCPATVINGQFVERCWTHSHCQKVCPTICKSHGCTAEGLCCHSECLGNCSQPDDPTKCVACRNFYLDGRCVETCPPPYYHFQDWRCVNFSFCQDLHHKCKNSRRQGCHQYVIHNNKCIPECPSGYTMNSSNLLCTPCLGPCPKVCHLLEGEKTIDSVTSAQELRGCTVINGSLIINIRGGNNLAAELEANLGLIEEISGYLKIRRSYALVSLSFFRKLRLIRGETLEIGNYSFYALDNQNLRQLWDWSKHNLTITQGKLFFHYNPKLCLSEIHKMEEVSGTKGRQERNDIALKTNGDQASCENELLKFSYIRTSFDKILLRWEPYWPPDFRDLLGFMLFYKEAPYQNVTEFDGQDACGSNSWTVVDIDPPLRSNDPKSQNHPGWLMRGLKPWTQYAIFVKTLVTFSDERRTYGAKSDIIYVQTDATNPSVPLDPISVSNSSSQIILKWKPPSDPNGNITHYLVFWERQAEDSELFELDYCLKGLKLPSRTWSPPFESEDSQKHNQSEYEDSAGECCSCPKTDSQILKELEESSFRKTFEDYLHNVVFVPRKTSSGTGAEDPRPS
# Sequence (P06213 763-1382 limits assumed): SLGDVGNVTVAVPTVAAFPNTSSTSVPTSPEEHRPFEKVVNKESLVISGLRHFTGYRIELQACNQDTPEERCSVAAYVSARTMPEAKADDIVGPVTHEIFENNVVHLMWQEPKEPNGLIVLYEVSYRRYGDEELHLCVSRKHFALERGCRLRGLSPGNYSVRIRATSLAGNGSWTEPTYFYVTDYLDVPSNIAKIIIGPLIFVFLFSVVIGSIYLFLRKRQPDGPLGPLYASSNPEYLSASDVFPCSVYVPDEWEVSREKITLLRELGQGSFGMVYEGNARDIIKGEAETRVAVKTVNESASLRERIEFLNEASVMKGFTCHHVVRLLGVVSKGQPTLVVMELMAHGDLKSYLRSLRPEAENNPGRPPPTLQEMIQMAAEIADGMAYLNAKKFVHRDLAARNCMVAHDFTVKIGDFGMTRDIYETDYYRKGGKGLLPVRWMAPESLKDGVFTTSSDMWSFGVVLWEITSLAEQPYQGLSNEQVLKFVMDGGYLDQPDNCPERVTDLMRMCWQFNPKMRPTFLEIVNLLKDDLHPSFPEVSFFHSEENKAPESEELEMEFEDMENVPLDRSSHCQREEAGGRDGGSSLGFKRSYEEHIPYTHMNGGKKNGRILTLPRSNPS
# Condition description: at 1 µM

Compound | Reading unit | inhibition
CCn1c(-c2nonc2N)nc2cncc(C(=O)NCCNC)c21 | % | 15.3
COC(=O)Nc1nc2cc(Oc3ccc(NC(=O)Nc4ccccc4)cc3)ccc2[nH]1 | % | 6.99
CC(C)c1ccc(-c2cc(-c3c[nH]nc3-c3ccccn3)ccn2)cc1 | % | 1.37
CC1(C)CC(n2cnc(-c3ccc(F)cc3)c2-c2ccnc(N)n2)CC(C)(C)N1 | % | 4.07
CN1CCC(n2cnc(-c3ccc(F)cc3)c2-c2ccnc(NCCO)n2)CC1 | % | 3.28
COc1cc2c(cc1Nc1nc(Nc3cccc(F)c3C(N)=O)c3cc[nH]c3n1)N(C(=O)CN1CCN(C(C)C)CC1)CC2 | % | 88.2
COc1cc(N2CCN(C(C)C)CC2)ccc1Nc1nc(Nc2cccc3ncccc23)c2cc[nH]c2n1 | % | 82.1
N#Cc1cccc(Nc2ncc(-c3ccccc3)o2)c1 | % | 4.42
O=C(Nc1n[nH]c2nnc(-c3cccnc3)cc12)C1CC1 | % | 1.82
CN(C)CCNC(=O)Nc1ccc(N(C)c2ccnc(Nc3ccc(CS(C)(=O)=O)cc3)n2)cc1 | % | 5.6
Cc1cc(O)cc(C)c1/C=C/c1cncc(C(N)=O)c1 | % | 2.45
N#Cc1ccc2c(-c3ccnc(NC4CC4)n3)c(-c3ccc(F)cc3)nn2c1 | % | -1.67
CNC(=O)c1cncc(/C=C/c2ccccc2C)c1 | % | 2.34
COc1ccc(Nc2ncc(-c3ccccc3)o2)cc1OC | % | 1.42
NS(=O)(=O)c1ccc(N/N=C2\C(=O)Nc3cccc(CCc4ccncc4)c32)cc1 | % | 5.06
COc1cc(N2CCN(C(C)C)CC2)ccc1Nc1nc(Nc2cccc(F)c2C(=O)O)c2cc[nH]c2n1 | % | 95.5
CCS(=O)(=O)c1ccc(OC)c(Nc2ncc(-c3cccc(C(C)=O)c3)o2)c1 | % | 2.68
Fc1ccc(Nc2nccc(-c3c(-c4ccc(C(F)(F)F)cc4)nn4ncccc34)n2)cc1F | % | 3.27
COc1ccc2ncn(-c3cc(O[C@H](C)c4ccccc4C(F)(F)F)c(C(N)=O)s3)c2c1 | % | 1.34
CC1=C(C(=O)Nc2ccc3[nH]nc(C)c3c2)C(c2ccc(C(F)(F)F)cc2)CC(=O)N1 (stereo not given) | % | 1.72

---

# Test system: Mast/stem cell growth factor receptor Kit (Homo sapiens), P10721 [D816V]
# Sequence (P10721 whole entry D816V): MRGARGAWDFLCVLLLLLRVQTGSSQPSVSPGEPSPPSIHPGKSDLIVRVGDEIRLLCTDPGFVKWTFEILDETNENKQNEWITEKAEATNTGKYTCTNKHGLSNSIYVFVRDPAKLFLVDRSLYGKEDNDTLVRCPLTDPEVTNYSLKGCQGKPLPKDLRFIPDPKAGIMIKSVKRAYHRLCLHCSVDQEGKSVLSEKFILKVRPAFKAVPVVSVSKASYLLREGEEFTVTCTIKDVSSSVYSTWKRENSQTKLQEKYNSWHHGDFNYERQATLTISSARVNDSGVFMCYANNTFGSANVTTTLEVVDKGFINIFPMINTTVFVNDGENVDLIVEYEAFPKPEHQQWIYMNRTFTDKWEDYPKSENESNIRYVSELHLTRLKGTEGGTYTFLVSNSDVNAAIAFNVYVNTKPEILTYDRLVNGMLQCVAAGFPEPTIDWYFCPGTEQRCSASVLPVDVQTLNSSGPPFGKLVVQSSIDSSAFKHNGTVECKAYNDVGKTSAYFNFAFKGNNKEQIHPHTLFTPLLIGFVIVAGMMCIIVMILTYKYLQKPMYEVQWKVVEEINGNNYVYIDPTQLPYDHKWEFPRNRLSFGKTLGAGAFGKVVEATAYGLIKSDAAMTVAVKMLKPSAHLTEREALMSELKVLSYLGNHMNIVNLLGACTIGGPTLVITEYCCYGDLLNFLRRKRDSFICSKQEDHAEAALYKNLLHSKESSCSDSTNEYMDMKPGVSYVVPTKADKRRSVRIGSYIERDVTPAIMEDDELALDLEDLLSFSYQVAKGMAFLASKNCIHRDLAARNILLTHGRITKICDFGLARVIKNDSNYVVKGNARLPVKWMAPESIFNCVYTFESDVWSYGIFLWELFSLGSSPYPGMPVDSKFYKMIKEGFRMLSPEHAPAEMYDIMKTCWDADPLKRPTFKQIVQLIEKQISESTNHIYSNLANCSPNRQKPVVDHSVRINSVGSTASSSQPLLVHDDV
# Condition description: at 0.1 µM
Property: inhibition (%)

Given smiles | Reading unit | Meas value
Cc1cc(O)cc(C)c1/C=C/c1cncc(C(N)=O)c1 | % | 3.61
Cc1nnc(-c2cccc(-c3ccc(C(=O)NCC4CC4)cc3)c2)o1 | % | 1.04
CN1CCC(n2cnc(-c3ccc(F)cc3)c2-c2ccnc(NCCO)n2)CC1 | % | 1.99
